assay: BSK_LPS_PGE2: BioMAP Diversity Plus: LPS Assay for Prostaglandin E2 (PGE2) Biomarker Activity (AID 2283082); details: primary human HUVEC with PBMC; actives raise or lower the signal;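 on AC50: secreted prostaglandin E2 measured by ELISA in LPS-stimulated co-culture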
Calls of active or inactive are those of the source. How the source made its calls: active means hit-call score of the fitted dose curve at least 0.9, where 1 is the maximum; inactive means score below 0.9.
Measured endpoint: AC50

>  <Molecule>
Nc1ccc(-c2ccc(N)c(N)c2)cc1N

>  <AC50>
inactive

$$$$
>  <Molecule>
COC(C)(C)CCC[C@H](C)C/C=C/C(C)=C/C(=O)OC(C)C

>  <AC50>
inactive

$$$$
>  <Molecule>
CCC(C)c1cc([N+](=O)[O-])cc([N+](=O)[O-])c1OC(=O)C=C(C)C (centres undefined)

>  <AC50>
5.41 µM (active)

$$$$
>  <Molecule>
CC(C)CCCCCCCOP(=O)(Oc1ccccc1)Oc1ccccc1

>  <AC50>
13.6 µM (active)

$$$$
>  <Molecule>
CNC(=O)Oc1cc(C)c(SC)c(C)c1

>  <AC50>
11.8 µM (active)

$$$$

Now for another entry.
## Input Indicate its recorded AC50; the molecule in question is [Cd+2].[Cl-].[Cl-]
## Output inactive

Cited source for all entries: PubChem BioAssay (EPA / NIEHS)
